Origin of values: the supplement of paper PMC6555819

- System: RARa homodimer (NR concentration 270 nM)
- testSummary: PBM binding z-score (relative to random genomic background probes); higher = stronger binding; sequences stand for … in GC…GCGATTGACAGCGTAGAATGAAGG
Recorded PBM binding z-score determines the group label, using low class = under -0.3, middle class = from -0.3 up to 0.8, high class = 0.8 and over

[
  {
    "biosequence": "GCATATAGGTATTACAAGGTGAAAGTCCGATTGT",
    "groupLabel": "middle class"
  },
  {
    "biosequence": "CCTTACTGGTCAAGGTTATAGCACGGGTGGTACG",
    "groupLabel": "high class"
  },
  {
    "biosequence": "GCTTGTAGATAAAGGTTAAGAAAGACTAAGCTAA",
    "groupLabel": "middle class"
  },
  {
    "biosequence": "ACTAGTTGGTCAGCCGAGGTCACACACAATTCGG",
    "groupLabel": "high class"
  },
  {
    "biosequence": "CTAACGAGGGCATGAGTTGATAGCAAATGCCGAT",
    "groupLabel": "middle class"
  },
  {
    "biosequence": "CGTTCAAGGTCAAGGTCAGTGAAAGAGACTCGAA",
    "groupLabel": "high class"
  },
  {
    "biosequence": "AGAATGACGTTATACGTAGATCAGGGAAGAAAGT",
    "groupLabel": "low class"
  },
  {
    "biosequence": "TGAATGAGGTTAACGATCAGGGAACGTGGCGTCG",
    "groupLabel": "middle class"
  },
  {
    "biosequence": "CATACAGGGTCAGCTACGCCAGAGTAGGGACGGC",
    "groupLabel": "middle class"
  },
  {
    "biosequence": "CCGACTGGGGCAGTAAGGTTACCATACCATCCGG",
    "groupLabel": "low class"
  }
]

====

- Test system: LXRa:RXRa (NR concentration 270 nM, RXRa partner concentration 90 nM)
- testSummary: PBM binding z-score (relative to random genomic background probes); higher = stronger binding; sequences stand for … in GC…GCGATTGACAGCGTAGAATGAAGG
Mark Not satisfied for PBM binding z-score values under 0.3, and Satisfied for everything at or above.

[
  {
    "biosequence": "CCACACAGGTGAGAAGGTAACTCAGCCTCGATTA",
    "groupLabel": "Not satisfied"
  },
  {
    "biosequence": "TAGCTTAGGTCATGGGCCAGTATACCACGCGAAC",
    "groupLabel": "Satisfied"
  },
  {
    "biosequence": "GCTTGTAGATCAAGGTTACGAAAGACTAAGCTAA",
    "groupLabel": "Satisfied"
  },
  {
    "biosequence": "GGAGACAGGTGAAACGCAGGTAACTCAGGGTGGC",
    "groupLabel": "Not satisfied"
  },
  {
    "biosequence": "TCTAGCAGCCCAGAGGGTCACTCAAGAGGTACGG",
    "groupLabel": "Satisfied"
  },
  {
    "biosequence": "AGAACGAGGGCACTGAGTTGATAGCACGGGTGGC",
    "groupLabel": "Not satisfied"
  },
  {
    "biosequence": "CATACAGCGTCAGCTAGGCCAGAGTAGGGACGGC",
    "groupLabel": "Not satisfied"
  },
  {
    "biosequence": "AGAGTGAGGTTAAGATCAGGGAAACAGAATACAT",
    "groupLabel": "Satisfied"
  },
  {
    "biosequence": "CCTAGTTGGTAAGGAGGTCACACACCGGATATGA",
    "groupLabel": "Satisfied"
  },
  {
    "biosequence": "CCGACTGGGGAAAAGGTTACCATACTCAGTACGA",
    "groupLabel": "Satisfied"
  },
  {
    "biosequence": "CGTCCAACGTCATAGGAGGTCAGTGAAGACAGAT",
    "groupLabel": "Satisfied"
  },
  {
    "biosequence": "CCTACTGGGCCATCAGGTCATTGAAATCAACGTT",
    "groupLabel": "Satisfied"
  },
  {
    "biosequence": "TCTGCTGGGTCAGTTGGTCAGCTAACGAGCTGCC",
    "groupLabel": "Not satisfied"
  },
  {
    "biosequence": "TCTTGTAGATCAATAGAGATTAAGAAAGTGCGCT",
    "groupLabel": "Not satisfied"
  },
  {
    "biosequence": "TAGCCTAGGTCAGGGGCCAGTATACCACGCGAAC",
    "groupLabel": "Satisfied"
  },
  {
    "biosequence": "CGAACTAGGTCATCCAAGACAGTGAATACATTGA",
    "groupLabel": "Satisfied"
  },
  {
    "biosequence": "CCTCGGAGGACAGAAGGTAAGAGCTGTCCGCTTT",
    "groupLabel": "Not satisfied"
  },
  {
    "biosequence": "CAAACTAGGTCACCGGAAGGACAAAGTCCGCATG",
    "groupLabel": "Satisfied"
  },
  {
    "biosequence": "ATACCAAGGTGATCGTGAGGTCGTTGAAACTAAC",
    "groupLabel": "Satisfied"
  },
  {
    "biosequence": "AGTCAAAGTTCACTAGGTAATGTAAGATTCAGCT",
    "groupLabel": "Satisfied"
  },
  {
    "biosequence": "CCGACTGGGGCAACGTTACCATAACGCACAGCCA",
    "groupLabel": "Not satisfied"
  },
  {
    "biosequence": "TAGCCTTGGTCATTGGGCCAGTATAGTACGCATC",
    "groupLabel": "Not satisfied"
  },
  {
    "biosequence": "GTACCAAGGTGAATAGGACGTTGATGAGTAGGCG",
    "groupLabel": "Not satisfied"
  },
  {
    "biosequence": "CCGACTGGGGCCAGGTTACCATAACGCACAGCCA",
    "groupLabel": "Not satisfied"
  },
  {
    "biosequence": "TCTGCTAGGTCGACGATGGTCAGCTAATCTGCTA",
    "groupLabel": "Not satisfied"
  },
  {
    "biosequence": "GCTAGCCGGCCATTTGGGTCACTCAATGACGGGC",
    "groupLabel": "Not satisfied"
  }
]

====

PBM binding z-score reference
- System: RARb:RXRa (NR concentration 270 nM, RXRa partner concentration 90 nM)
- testSummary: PBM binding z-score (relative to random genomic background probes); higher = stronger binding; sequences stand for … in GC…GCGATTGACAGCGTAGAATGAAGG
measurementLabel: PBM binding z-score

[
  {
    "biosequence": "AGTCACAGTTCATCTAGGTAACGTAAGATATGCT",
    "recordedNumber": 2.74
  },
  {
    "biosequence": "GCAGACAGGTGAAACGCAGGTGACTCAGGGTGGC",
    "recordedNumber": 1.01
  },
  {
    "biosequence": "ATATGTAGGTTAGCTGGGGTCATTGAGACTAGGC",
    "recordedNumber": 2.9
  },
  {
    "biosequence": "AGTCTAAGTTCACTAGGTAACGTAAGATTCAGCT",
    "recordedNumber": 3.58
  },
  {
    "biosequence": "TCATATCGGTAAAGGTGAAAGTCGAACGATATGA",
    "recordedNumber": 1.98
  },
  {
    "biosequence": "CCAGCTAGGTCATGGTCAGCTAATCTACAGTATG",
    "recordedNumber": 3.97
  },
  {
    "biosequence": "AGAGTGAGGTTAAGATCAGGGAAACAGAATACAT",
    "recordedNumber": 2.38
  },
  {
    "biosequence": "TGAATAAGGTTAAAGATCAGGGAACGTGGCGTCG",
    "recordedNumber": 2.35
  },
  {
    "biosequence": "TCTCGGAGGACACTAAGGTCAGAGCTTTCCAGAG",
    "recordedNumber": 3.32
  },
  {
    "biosequence": "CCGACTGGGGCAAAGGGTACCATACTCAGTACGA",
    "recordedNumber": 1.11
  },
  {
    "biosequence": "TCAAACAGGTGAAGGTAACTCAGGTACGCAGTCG",
    "recordedNumber": 1.26
  },
  {
    "biosequence": "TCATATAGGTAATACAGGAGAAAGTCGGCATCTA",
    "recordedNumber": 0.369
  }
]

====

- Test system: PPARg:RXRa IVT, anti-PPARg (NR concentration 270 nM, RXRa partner concentration 90 nM)
- testSummary: PBM binding z-score (relative to random genomic background probes); higher = stronger binding; sequences stand for … in GC…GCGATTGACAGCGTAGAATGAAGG
Classification field: y = PBM binding z-score at or over 1; n = PBM binding z-score under 1.

[
  {
    "biosequence": "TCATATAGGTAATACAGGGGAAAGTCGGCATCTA",
    "groupLabel": "y"
  },
  {
    "biosequence": "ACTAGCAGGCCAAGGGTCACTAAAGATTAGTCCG",
    "groupLabel": "y"
  },
  {
    "biosequence": "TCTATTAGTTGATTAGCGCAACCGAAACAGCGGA",
    "groupLabel": "n"
  },
  {
    "biosequence": "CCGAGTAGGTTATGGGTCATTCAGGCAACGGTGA",
    "groupLabel": "y"
  },
  {
    "biosequence": "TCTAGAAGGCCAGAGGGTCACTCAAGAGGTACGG",
    "groupLabel": "n"
  },
  {
    "biosequence": "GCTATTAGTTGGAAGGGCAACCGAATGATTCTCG",
    "groupLabel": "n"
  },
  {
    "biosequence": "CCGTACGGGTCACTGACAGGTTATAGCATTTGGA",
    "groupLabel": "y"
  },
  {
    "biosequence": "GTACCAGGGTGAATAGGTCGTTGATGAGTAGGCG",
    "groupLabel": "y"
  },
  {
    "biosequence": "GCGAGTGGGGCATCAGCAGGTTACCATAACTTAA",
    "groupLabel": "y"
  },
  {
    "biosequence": "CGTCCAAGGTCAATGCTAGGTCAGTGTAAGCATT",
    "groupLabel": "y"
  },
  {
    "biosequence": "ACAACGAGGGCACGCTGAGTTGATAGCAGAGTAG",
    "groupLabel": "y"
  },
  {
    "biosequence": "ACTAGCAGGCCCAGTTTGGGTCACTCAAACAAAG",
    "groupLabel": "n"
  },
  {
    "biosequence": "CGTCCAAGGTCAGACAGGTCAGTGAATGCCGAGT",
    "groupLabel": "y"
  },
  {
    "biosequence": "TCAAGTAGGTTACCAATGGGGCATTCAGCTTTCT",
    "groupLabel": "y"
  },
  {
    "biosequence": "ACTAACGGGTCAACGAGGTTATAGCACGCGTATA",
    "groupLabel": "y"
  },
  {
    "biosequence": "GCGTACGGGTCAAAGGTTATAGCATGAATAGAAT",
    "groupLabel": "y"
  },
  {
    "biosequence": "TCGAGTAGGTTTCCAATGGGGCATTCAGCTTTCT",
    "groupLabel": "n"
  },
  {
    "biosequence": "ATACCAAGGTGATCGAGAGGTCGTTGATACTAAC",
    "groupLabel": "y"
  },
  {
    "biosequence": "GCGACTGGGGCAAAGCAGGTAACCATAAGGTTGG",
    "groupLabel": "y"
  },
  {
    "biosequence": "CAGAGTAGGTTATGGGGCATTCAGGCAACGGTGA",
    "groupLabel": "y"
  },
  {
    "biosequence": "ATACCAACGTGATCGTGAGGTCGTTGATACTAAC",
    "groupLabel": "n"
  },
  {
    "biosequence": "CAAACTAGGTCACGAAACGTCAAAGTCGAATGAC",
    "groupLabel": "y"
  },
  {
    "biosequence": "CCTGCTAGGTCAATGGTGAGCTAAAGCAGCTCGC",
    "groupLabel": "y"
  },
  {
    "biosequence": "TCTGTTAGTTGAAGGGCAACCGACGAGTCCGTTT",
    "groupLabel": "y"
  },
  {
    "biosequence": "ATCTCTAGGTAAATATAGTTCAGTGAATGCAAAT",
    "groupLabel": "y"
  },
  {
    "biosequence": "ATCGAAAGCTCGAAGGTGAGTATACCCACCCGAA",
    "groupLabel": "n"
  }
]
